Entries annotated with measured inhibition zone (IZ)
system: Escherichia coli; experiment: Inhibition of beta lactamase CMY-2 in Escherichia coli 77 assessed as potentiation of ceftazidime-induced antibacterial activity by measuring diameter of zone inhibition at 0.3 mg incubated for 18 hrs in presence of 30 ug ceftazidime by CLSI disc diffusion method (Rvb=13 mm)
Report only the number, with the unit mm understood.

# SMILES_CODE, READOUT_VALUE
rows = [
    ("C[Si]1(C)OB(O)c2c(F)c3c(c(F)c21)B(O)OC3", 20),
    ("C[Si]1(C)OB(O)c2cc3c(c(F)c21)COB3O", 20),
]

Lookup result for C[Si]1(C)OB(O)c2ccc(F)c(F)c21 ; measured inhibition zone (IZ): 22

Lookup result for C[Si]1(C)OB(O)c2ccc(B(O)O)cc21 ; measured inhibition zone (IZ): 22

Lookup result for OB(O)c1ccccc1 ; measured inhibition zone (IZ): 24

Lookup result for C[Si]1(C)OB(O)c2c(F)c(F)c(F)c(F)c21 ; measured inhibition zone (IZ): 22
